- procedure_details: Permeability across apical to basolateral side in human Caco-2 cells at pH 6.5 at 1 uM
- Type: ADME, cell-based
- condition_label: Caco-2, pH 6.5, read-out: permeability
Papp A→B at 1 µM by entry:
Write it as a number; the unit ×10⁻⁶ cm/s goes unstated.

COC(=O)c1cccc(-c2cnc3[nH]cc(-c4cccnc4)c3c2)c1 0.13

For the next question, use this compound.
Answer with the recorded Papp A→B at 1 µM of `COC(=O)c1cccc(-c2cnc3[nH]cc(-c4cncnc4)c3c2)c1` only.
0.37

====

- procedure_details: Permeability across apical to basolateral side in human Caco-2 cells at pH 6.5 assessed as compound recovery at 1 uM
- Type: ADME, cell-based
- condition_label: Caco-2, pH 6.5, read-out: Drug recovery
readout: recovery at 1 µM (%)
Write it as a number; the unit % goes unstated.

COC(=O)c1cccc(-c2cnc3[nH]cc(-c4cccnc4)c3c2)c1 0.4

For the next question, use this compound.
Answer with the recorded recovery at 1 µM of `COC(=O)c1cccc(-c2cnc3[nH]cc(-c4cncnc4)c3c2)c1` only.
1.5
